- assay-system: intracellular phosphorylation of EGFR in NCI-H1975 cell line that harbors the EGFR L858R T790M mutations (Homo sapiens, UniProt P00533, L858R/T790M)
- Construct: NCI-H1975 cell line that harbors the EGFR L858R T790M mutations (ATCC, CRL-5908); host or cells: NCI-H1975
- Sequence (P00533 25-1210 T790M/L858R): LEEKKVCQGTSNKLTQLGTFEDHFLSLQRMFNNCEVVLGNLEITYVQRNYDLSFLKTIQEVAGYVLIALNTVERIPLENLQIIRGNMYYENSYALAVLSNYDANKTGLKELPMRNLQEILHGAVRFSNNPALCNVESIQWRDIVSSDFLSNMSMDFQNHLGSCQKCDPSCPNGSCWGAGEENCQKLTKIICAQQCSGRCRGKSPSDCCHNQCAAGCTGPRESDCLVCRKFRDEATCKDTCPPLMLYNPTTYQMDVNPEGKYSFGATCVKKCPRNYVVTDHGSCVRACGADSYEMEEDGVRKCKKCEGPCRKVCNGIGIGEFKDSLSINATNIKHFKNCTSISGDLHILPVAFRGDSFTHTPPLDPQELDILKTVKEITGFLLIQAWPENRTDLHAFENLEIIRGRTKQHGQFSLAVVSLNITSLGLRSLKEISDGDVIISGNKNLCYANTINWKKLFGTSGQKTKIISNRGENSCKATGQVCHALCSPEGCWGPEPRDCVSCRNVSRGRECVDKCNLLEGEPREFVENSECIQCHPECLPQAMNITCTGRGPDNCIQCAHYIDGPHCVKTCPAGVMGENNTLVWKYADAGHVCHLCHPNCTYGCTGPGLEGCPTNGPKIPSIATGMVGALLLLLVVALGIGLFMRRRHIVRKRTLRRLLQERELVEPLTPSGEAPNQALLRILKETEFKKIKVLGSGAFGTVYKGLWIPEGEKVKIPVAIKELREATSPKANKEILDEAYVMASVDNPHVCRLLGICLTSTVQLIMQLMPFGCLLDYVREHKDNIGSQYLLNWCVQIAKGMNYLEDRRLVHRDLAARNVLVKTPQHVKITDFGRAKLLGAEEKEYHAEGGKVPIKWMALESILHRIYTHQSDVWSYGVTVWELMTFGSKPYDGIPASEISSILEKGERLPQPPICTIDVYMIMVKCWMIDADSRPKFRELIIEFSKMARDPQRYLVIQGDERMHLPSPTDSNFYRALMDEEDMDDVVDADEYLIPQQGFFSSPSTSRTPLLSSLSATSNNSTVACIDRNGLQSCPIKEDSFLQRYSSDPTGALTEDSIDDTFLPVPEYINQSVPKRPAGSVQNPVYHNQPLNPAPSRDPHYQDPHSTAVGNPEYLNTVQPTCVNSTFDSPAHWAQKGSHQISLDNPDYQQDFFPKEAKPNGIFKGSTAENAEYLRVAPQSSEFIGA
- procedure-text: NCI-H1975 pEGFR AlphaLISA assay
- Format: cell-based
- settings: NCI-H1975 cells (EGFR L858R T790M), p-EGFR (Tyr1068), 4-5 hours incubation; read-out: Ext pEGFR H1975 GMean IC50 (nM) Protocol: @Pharmaron AlphaLISA (Num)
recorded-metric: IC50

- compound: "CNC[C@@H]1CCCN1c1ncc(C(C)C)c2cc(Nc3ccnc(N4CC[C@@H](O)[C@@](C)(F)C4)n3)ncc12"
  IC50: "30 to 50 nM"
- compound: "CO[C@@H]1CCN(c2nccc(Nc3cc4c(C(C)C)ncc(N5CC(C(=O)N(C)C)C5)c4cn3)n2)C[C@@H]1O (single isomer, unassigned)"
  IC50: "> 50 nM"
- compound: "CC(C)c1ncc(-c2cn(C)nn2)c2cnc(Nc3ccnc(N4CC[C@@H](O)[C@@](C)(F)C4)n3)cc12"
  IC50: "10 to 20 nM"
- compound: "Cc1nc(-c2ccc(C(C)C)c3cc(Nc4ccnc(N5CC[C@@H](O)[C@@](C)(F)C5)n4)ncc23)n[nH]1"
  IC50: "30 to 50 nM"
- compound: "CC(C)c1cnc(N2CCC(F)(F)C2)c2cnc(Nc3ccnc(N4CC[C@@H](O)[C@@](C)(F)C4)n3)cc12"
  IC50: "20 to 30 nM"

Let's switch to this compound now.
stdin: Which measured IC50 value corresponds to C[C@H]1CCN1c1ncc(CC2(C)COC2)c2cc(Nc3ccnc(N4CC[C@@H](O)[C@@](C)(F)C4)n3)ncc12 (single isomer, unassigned) ?
stdout: > 50 nM

###

- assay-system: EGFR (L858R T790M C797S) (Homo sapiens, UniProt P00533, C797S/L858R/T790M)
- Construct: purchased SignalChem E10-122VG
- Sequence (P00533 25-1210 T790M/C797S/L858R): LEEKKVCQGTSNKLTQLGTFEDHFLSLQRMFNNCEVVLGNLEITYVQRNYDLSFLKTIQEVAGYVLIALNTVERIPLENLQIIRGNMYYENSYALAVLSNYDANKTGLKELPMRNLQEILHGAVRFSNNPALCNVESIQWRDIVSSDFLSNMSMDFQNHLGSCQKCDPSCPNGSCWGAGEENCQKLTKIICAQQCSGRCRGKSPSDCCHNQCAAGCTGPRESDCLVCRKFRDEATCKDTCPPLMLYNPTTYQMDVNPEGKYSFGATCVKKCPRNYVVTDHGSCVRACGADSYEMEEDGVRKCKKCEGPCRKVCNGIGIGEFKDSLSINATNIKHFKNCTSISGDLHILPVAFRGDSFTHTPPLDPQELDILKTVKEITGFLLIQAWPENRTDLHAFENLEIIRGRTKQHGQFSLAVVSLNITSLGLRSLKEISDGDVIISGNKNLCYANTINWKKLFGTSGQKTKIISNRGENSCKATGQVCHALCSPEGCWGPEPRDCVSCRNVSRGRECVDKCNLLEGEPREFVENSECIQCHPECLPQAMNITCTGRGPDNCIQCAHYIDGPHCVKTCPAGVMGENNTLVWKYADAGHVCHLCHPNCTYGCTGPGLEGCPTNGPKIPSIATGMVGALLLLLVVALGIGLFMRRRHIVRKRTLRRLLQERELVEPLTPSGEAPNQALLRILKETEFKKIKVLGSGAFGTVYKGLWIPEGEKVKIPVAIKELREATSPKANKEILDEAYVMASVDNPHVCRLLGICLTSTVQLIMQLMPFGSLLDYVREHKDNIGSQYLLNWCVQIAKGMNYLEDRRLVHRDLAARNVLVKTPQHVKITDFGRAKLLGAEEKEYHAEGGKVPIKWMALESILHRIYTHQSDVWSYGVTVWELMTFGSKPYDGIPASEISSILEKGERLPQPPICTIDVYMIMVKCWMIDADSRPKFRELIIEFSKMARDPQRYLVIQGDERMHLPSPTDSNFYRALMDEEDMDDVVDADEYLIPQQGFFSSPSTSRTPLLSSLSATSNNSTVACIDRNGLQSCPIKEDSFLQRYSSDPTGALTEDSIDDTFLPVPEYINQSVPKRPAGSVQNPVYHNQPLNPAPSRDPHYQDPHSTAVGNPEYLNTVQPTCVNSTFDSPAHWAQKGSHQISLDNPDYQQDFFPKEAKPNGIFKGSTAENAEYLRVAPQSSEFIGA
- procedure-text: Biochemical EGFR inhibition assay (Caliper mobility shift), EGFR LRTMCS
- settings: LRTMCS (PH) IC50 (nM) @ 1 mM ATP (Num), EGFR LRTMCS mutant
recorded-metric: IC50

Recorded IC50, per entry:
- compound: "CO[C@@H]1CCN(c2cc(Nc3cc4c(C(C)C)ccc(N5CC(n6ccnn6)C5)c4cn3)ccn2)C[C@@H]1O (single isomer, unassigned) [Example 126]"
  assay-system: "EGFR (L858R T790M C797S) (Homo sapiens, UniProt P00533, C797S/L858R/T790M)"
  recorded-metric: "IC50"
  observed-measurement: "< 15 nM"
- compound: "CO[C@H]1CCN(c2nccc(Nc3cc4c(C(C)C)cnc(N5CCC56CN(C)C6)c4cn3)n2)C[C@H]1F [Example 42]"
  assay-system: "EGFR (L858R T790M C797S) (Homo sapiens, UniProt P00533, C797S/L858R/T790M)"
  recorded-metric: "IC50"
  observed-measurement: "20 to 30 nM"
- compound: "C[C@H]1CCN1c1ncc(CC2(C)COC2)c2cc(Nc3ccnc(N4CC[C@@H](O)[C@@](C)(F)C4)n3)ncc12 (single isomer, unassigned) [Example 156]"
  assay-system: "EGFR (L858R T790M C797S) (Homo sapiens, UniProt P00533, C797S/L858R/T790M)"
  recorded-metric: "IC50"
  observed-measurement: "20 to 30 nM"
- compound: "CC(C)c1cnc(N2CC[C@]23CCN(C)C3)c2cnc(Nc3ccnc(N4CC[C@@H](O)[C@@](C)(F)C4)n3)cc12 (single isomer, unassigned) [Example 198]"
  assay-system: "EGFR (L858R T790M C797S) (Homo sapiens, UniProt P00533, C797S/L858R/T790M)"
  recorded-metric: "IC50"
  observed-measurement: "15 to 20 nM"
- compound: "CC(C)c1nnc(N2CC[C@H]2C(F)F)c2cnc(Nc3ccnc(N4CC[C@@H](O)[C@@](C)(F)C4)n3)cc12 (single isomer, unassigned) [Example 205]"
  assay-system: "EGFR (L858R T790M C797S) (Homo sapiens, UniProt P00533, C797S/L858R/T790M)"
  recorded-metric: "IC50"
  observed-measurement: "30 to 100 nM"
- compound: "CC(C)c1cnc(-c2cn(C)nn2)c2cnc(Nc3ccnc(N4CC[C@@H](O)[C@@](C)(F)C4)n3)cc12 [Example 10]"
  assay-system: "EGFR (L858R T790M C797S) (Homo sapiens, UniProt P00533, C797S/L858R/T790M)"
  recorded-metric: "IC50"
  observed-measurement: "< 15 nM"
- compound: "CC(C)c1cnc(N2CC[C@]3(C2)CC3(F)F)c2cnc(Nc3ccnc(N4CC[C@@H](O)[C@@](C)(F)C4)n3)cc12 (single isomer, unassigned) [Example 214]"
  assay-system: "EGFR (L858R T790M C797S) (Homo sapiens, UniProt P00533, C797S/L858R/T790M)"
  recorded-metric: "IC50"
  observed-measurement: "30 to 100 nM"
- compound: "COC1CN(c2ccc([C@@H](C)CO)c3cc(Nc4ccnc(N5CC[C@@H](O)[C@@](C)(F)C5)n4)ncc23)C1 (single isomer, unassigned) [Example 180]"
  assay-system: "EGFR (L858R T790M C797S) (Homo sapiens, UniProt P00533, C797S/L858R/T790M)"
  recorded-metric: "IC50"
  observed-measurement: "30 to 100 nM"

stdin: Which measured IC50 value corresponds to CC(C)c1cnc(N2CC3(CN(C)C(=O)O3)C2)c2cnc(Nc3ccnc(N4CC[C@@H](O)[C@@](C)(F)C4)n3)cc12 [Example 71] ?
stdout: 20 to 30 nM

stdin: Which measured IC50 value corresponds to [2H]C([2H])([2H])O[C@@H]1CCN(c2nccc(Nc3cc4c(C(C)C)cnc(N5C[C@H](OCCO)[C@H]5C)c4cn3)n2)C[C@@H]1F [Example 140] ?
stdout: < 15 nM

stdin: Which measured IC50 value corresponds to CC(C)c1ncc(-c2cn(C)nn2)c2cnc(Nc3ccnc(N4CC[C@@H](O)[C@@](C)(F)C4)n3)cc12 [Example 12] ?
stdout: < 15 nM

stdin: Which measured IC50 value corresponds to CC(C)c1ccc(C2CN(S(C)(=O)=O)C2)c2cnc(Nc3ccnc(N4CC[C@@H](O)[C@@](C)(F)C4)n3)cc12 [Example 3] ?
stdout: < 15 nM

stdin: Which measured IC50 value corresponds to CNC[C@@H]1CCN1c1ncc(C(C)C)c2cc(Nc3ccnc(N4CC[C@H](OC)[C@H](F)C4)n3)ncc12 [Example 164] ?
stdout: < 15 nM

stdin: Which measured IC50 value corresponds to CC(C)c1ccc(N2C[C@H](n3ccnn3)[C@H]2C)c2cnc(Nc3ccnc(N4CCC(C)(O)CC4)n3)cc12 [Example 129] ?
stdout: 30 to 100 nM

stdin: Which measured IC50 value corresponds to CC(C)c1cnc(-c2cn(C3COC3)cn2)c2cnc(Nc3ccnc(N4CC[C@@H](O)[C@@](C)(F)C4)n3)cc12 [Example 20] ?
stdout: < 15 nM

stdin: Which measured IC50 value corresponds to CC(C)c1ccc(N2CC[C@H]2CO)c2cnc(Nc3ccnc(N4CC[C@@H](O)[C@@](C)(F)C4)n3)cc12 [Example 105] ?
stdout: < 15 nM

###

- assay-system: intracellular phosphorylation of EGFR in NCI-H1975 cell line that harbors the EGFR L858R T790M mutations (Homo sapiens, UniProt P00533, L858R/T790M)
- Construct: NCI-H1975 cell line that harbors the EGFR L858R T790M mutations (ATCC, CRL-5908); host or cells: NCI-H1975
- procedure-text: NCI-H1975 pEGFR AlphaLISA assay
- Format: cell-based
- settings: NCI-H1975 cells (EGFR L858R T790M), p-EGFR (Tyr1068), 4-5 hours incubation; read-out: Ext pEGFR H1975 GMean IC50 (nM) Protocol: @Pharmaron AlphaLISA (Num)
Structures can show the parent of a compound that is named as a salt.
# IC50 values compiled below

- compound: "CC(C)c1cnc(-c2ccn(C3COC3)n2)c2cnc(Nc3ccnc(N4CC[C@@H](O)[C@@](C)(F)C4)n3)cc12"
  IC50: "> 50 nM"
- compound: "CC(C)c1cnc(N2C[C@H](O)[C@H]2C)c2cnc(Nc3ccnc(N4CC[C@@](C)(O)[C@@H](F)C4)n3)cc12 (single isomer, unassigned) [Example 173]"
  IC50: "30 to 50 nM"
- compound: "CNC[C@@H]1CCN1c1ncc(C(C)C)c2cc(Nc3ccnc(N4CC[C@H](OC)[C@H](F)C4)n3)ncc12"
  IC50: "30 to 50 nM"
- compound: "CC(C)c1ccc(N2CC(c3nncn3C)C2)c2cnc(Nc3ccnc(N4CC[C@@H](O)[C@@](C)(F)C4)n3)cc12"
  IC50: "10 to 20 nM"
- compound: "CC(C)c1cnc(N2CCC23CN(C)C3)c2cnc(Nc3ccnc(N4CC[C@@H](O)[C@@](C)(F)C4)n3)cc12 [Example 192, trifluoroacetate]"
  IC50: "30 to 50 nM"
- compound: "CC(C)c1ccc(N2CCC2)c2cnc(Nc3ccnc(N4CC[C@@H](O)[C@@](C)(F)C4)n3)cc12"
  IC50: "> 50 nM"
- compound: "Cc1nc(-c2cnc(C(C)C)c3cc(Nc4ccnc(N5CC[C@@H](O)[C@@](C)(F)C5)n4)ncc23)no1"
  IC50: "> 50 nM"
- compound: "CC(C)c1cnc(N2CC[C@H]2C)c2cnc(Nc3ccnc(N4CC[C@H](OCCN(C)C)[C@H](F)C4)n3)cc12"
  IC50: "30 to 50 nM"
- compound: "CC(C)c1cnc(N2CCC2)c2cnc(Nc3ccnc(N4CC[C@@H](O)[C@@](C)(F)C4)n3)cc12"
  IC50: "20 to 30 nM"
- compound: "CC(C)c1cnc(N2CC(F)C2)c2cnc(Nc3ccnc(N4CC[C@@H](O)[C@@](C)(F)C4)n3)cc12"
  IC50: "20 to 30 nM"

stdin: Which measured IC50 value corresponds to CC(C)c1cnc(N2CC(CO)C2)c2cnc(Nc3ccnc(N4CC[C@@H](O)[C@@](C)(F)C4)n3)cc12 ?
stdout: 30 to 50 nM

stdin: Which measured IC50 value corresponds to CC(C)c1cnc(N2CC[C@H]2CN(C)C)c2cnc(Nc3ccnc(N4CC[C@@H](O)[C@@](C)(F)C4)n3)cc12 [Example 48, trifluoroacetate] ?
stdout: 10 to 20 nM

stdin: Which measured IC50 value corresponds to CC(C)c1cnc(N2C[C@@H](F)[C@@H]2C)c2cnc(Nc3ccnc(N4CC[C@@H](O)[C@@](C)(F)C4)n3)cc12 (single isomer, unassigned) ?
stdout: > 50 nM

stdin: Which measured IC50 value corresponds to CC(C)c1cnc(N2CC[C@H]2C)c2cnc(Nc3ccnc(N4CC[C@@H](OCCO)[C@@H](F)C4)n3)cc12 ?
stdout: < 10 nM

stdin: Which measured IC50 value corresponds to CNC(=O)C1CN(c2ncc(C(C)C)c3cc(Nc4ccnc(N5CC[C@@H](O)[C@@](C)(F)C5)n4)ncc23)C1 ?
stdout: 30 to 50 nM

stdin: Which measured IC50 value corresponds to CO[C@H]1CCN(c2nccc(Nc3cc4c(C(C)C)cnc(N5CC[C@H]5CN)c4cn3)n2)C[C@H]1F ?
stdout: 20 to 30 nM

stdin: Which measured IC50 value corresponds to CC(C)c1cnc(N2CC(CNS(C)(=O)=O)C2)c2cnc(Nc3ccnc(N4CC[C@@H](O)[C@@](C)(F)C4)n3)cc12 ?
stdout: 20 to 30 nM

stdin: Which measured IC50 value corresponds to CC(C)c1cnc(N2CC(O)C2)c2cnc(Nc3ccnc(N4CC[C@@]5(CCO5)C(F)(F)C4)n3)cc12 (single isomer, unassigned) ?
stdout: 30 to 50 nM

stdin: Which measured IC50 value corresponds to CC(C)c1cnc(N2CC[C@@H](S(C)(=O)=O)C2)c2cnc(Nc3ccnc(N4CC[C@@H](O)[C@@](C)(F)C4)n3)cc12 ?
stdout: < 10 nM

stdin: Which measured IC50 value corresponds to CC(C)c1cnc(N2C[C@](C)(O)[C@H]2C)c2cnc(Nc3ccnc(N4CC[C@@H](O)[C@@](C)(F)C4)n3)cc12 ?
stdout: 20 to 30 nM

stdin: Which measured IC50 value corresponds to CC(C)c1cnc(N2CCC23CCN(C)CC3)c2cnc(Nc3ccnc(N4CC[C@@H](O)[C@@](C)(F)C4)n3)cc12 ?
stdout: 10 to 20 nM

stdin: Which measured IC50 value corresponds to CC(C)c1cnc(N2CC3(CCS3(=O)=O)C2)c2cnc(Nc3ccnc(N4C[C@@H](F)[C@@H](O)C(C)(C)C4)n3)cc12 (single isomer, unassigned) ?
stdout: 10 to 20 nM

The measured values listed here are drawn from patent US20240382483A1.
